Read-out: Tissue Factor, F3 (gene 2152)
assayMethodText: BSK_CASM3C_TissueFactor: BioMAP Diversity Plus: CASM3C Assay for Tissue Factor Biomarker Activity (AID 2283052);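 note: cell surface tissue factor protein level read by ELISA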
assayContext: primary human coronary artery smooth muscle cells; actives raise or lower the signal
Active and inactive are the calls of the source. Rule for the calls: active = hit-call score of the fitted dose curve at least 0.9, where 1 is the maximum; inactive = score below 0.9.
Thanks in advance; please answer with one of these: 1 for active, 0 for inactive

Solved cases below.
>  <compound>
Brc1ccc(Oc2ccccc2)cc1

>  <category>
0

$$$$
>  <compound>
O=C1CCCO1

>  <category>
0

$$$$
>  <compound>
CCCCCOC(=O)c1ccccc1C(=O)OCCCCC

>  <category>
0

$$$$
>  <compound>
c1ccc(NNc2ccccc2)cc1

>  <category>
0

$$$$
>  <compound>
[O-][Cl+]O

>  <category>
0

$$$$
>  <compound>
CCN(CC)N=O

>  <category>
0

$$$$
>  <compound>
O=C(Oc1ccc(Br)cc1)N1CCN2CCC1CC2

>  <category>
0

$$$$
>  <compound>
O=[N+]([O-])c1ccc(Oc2ccc(Cl)cc2Cl)cc1

>  <category>
0

$$$$

Status in this test for "Clc1ccc(Cl)c(Cl)c1" ?
0

Status in this test for "CN(C)C(=O)Nc1ccc(Cl)cc1" ?
0

Status in this test for "COP(=S)(OC)SCN1C(=O)c2ccccc2C1=O" ?
0
